Cited source: ChEMBL document CHEMBL2331457

Tested Target: Voltage-gated inwardly rectifying potassium channel KCNH2 (Homo sapiens, UniProt Q12809)
Sequence (Q12809 whole entry): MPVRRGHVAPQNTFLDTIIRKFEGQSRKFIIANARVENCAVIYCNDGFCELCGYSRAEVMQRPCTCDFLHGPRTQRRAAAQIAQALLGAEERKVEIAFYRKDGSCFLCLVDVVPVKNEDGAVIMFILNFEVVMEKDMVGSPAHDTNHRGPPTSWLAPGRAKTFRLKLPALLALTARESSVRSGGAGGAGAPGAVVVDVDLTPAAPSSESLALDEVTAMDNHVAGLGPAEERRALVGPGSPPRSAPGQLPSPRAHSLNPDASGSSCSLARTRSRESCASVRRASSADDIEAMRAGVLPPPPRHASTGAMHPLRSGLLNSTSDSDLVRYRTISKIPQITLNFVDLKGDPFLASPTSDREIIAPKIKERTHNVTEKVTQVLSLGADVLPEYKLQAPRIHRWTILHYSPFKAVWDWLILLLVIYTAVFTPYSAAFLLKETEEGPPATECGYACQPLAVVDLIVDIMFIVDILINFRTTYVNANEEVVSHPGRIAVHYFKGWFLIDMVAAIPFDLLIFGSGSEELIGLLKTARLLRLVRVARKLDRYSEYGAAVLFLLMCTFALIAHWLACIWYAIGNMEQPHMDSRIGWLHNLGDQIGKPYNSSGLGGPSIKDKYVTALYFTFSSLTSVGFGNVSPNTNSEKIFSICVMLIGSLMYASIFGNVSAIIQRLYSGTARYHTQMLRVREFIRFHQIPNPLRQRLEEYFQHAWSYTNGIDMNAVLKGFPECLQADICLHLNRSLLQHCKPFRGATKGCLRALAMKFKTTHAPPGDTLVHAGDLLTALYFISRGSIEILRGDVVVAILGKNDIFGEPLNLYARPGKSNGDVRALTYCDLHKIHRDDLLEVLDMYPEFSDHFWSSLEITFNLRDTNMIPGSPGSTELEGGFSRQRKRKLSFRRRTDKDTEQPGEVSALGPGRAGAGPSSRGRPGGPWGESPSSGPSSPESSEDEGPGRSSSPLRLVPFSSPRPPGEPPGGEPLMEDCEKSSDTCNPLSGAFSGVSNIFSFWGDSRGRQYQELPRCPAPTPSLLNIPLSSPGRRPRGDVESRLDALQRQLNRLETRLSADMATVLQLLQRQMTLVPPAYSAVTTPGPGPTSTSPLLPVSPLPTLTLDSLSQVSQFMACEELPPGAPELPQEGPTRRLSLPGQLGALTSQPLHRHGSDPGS
Experimental Readout: IC50 (µM)
Give bare numbers, in µM.

Fill in: IC50 of Brc1cccc2nc(C#Cc3ccccn3)ccc12 is ___
22.7

---

Tested Target: Metabotropic glutamate receptor 5 (Homo sapiens, UniProt P41594)
Sequence (P41594 21-1212 limits assumed): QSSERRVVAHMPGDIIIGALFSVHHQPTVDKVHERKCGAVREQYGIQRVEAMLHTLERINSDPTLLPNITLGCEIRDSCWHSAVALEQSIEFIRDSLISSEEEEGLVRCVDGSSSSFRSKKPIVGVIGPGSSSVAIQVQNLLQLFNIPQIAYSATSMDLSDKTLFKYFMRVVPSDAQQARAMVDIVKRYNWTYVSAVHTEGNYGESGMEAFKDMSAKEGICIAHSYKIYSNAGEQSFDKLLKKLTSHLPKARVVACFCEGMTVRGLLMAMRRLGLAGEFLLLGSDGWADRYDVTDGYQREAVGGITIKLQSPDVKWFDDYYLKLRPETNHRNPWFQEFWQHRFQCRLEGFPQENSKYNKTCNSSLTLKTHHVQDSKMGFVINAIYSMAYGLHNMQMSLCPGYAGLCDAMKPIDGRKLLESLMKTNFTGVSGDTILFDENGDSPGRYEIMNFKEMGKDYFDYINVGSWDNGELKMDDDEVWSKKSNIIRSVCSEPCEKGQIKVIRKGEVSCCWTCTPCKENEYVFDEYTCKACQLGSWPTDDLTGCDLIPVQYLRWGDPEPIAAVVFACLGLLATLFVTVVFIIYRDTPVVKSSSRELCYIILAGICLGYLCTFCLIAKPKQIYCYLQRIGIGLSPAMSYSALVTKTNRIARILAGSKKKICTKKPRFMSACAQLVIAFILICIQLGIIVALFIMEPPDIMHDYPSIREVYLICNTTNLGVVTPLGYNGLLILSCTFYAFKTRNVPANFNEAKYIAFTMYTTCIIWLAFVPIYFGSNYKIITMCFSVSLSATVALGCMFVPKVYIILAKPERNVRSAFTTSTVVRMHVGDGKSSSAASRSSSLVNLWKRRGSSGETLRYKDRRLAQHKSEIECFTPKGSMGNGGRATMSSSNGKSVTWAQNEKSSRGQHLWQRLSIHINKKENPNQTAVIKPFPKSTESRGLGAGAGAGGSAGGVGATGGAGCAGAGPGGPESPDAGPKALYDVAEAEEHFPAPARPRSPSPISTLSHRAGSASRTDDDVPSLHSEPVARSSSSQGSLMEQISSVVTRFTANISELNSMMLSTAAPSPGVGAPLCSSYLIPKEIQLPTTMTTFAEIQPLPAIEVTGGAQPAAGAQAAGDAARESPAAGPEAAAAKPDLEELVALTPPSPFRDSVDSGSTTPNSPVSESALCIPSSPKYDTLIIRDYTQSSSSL
Measurement Notes: Antagonist activity at human mGluR5 expressed in HEK293 cells assessed as inhibition of L-glutamate-induced calcium mobilization at 1 uM by FDSS6000 assay
Type: functional, cell-based
We use 30% as the dividing line for inhibition: on or above the line is Yes, below is No.

Worked examples follow.
# Structure Notation, Assigned Label
records = [
    ("COc1cccc2nc(C#Cc3ccccc3)ccc12", "Yes"),
    ("Brc1cccc2nc(C#Cc3cccnc3)ccc12", "No"),
    ("Cc1cccnc1C#Cc1ccc2ccccc2n1", "No"),
    ("C(#Cc1ccc2ccccc2n1)c1ccccn1", "Yes"),
    ("Brc1cccc2nc(C#Cc3ccccc3)ccc12", "No"),
]

Does inhibition meet or surpass 30% for Fc1cccnc1C#Cc1ccc2ccccc2n1 ?
Yes

Tell me whether inhibition is at least 30% here: Brc1cccc2nc(C#Cc3ccccn3)ccc12
Yes

Determine whether measured inhibition meets or exceeds 30% for Cc1ccnc(C#Cc2ccc3ccccc3n2)c1
No

---

Tested Target: Metabotropic glutamate receptor 5 (Homo sapiens)
Measurement Notes: Antagonist activity at human mGluR5 expressed in HEK293 cells assessed as inhibition of L-glutamate-induced calcium mobilization at 10 uM by FDSS6000 assay
Format: functional, cell-based
Experimental Readout: inhibition (%)
Give bare numbers, in %.

# Structure Notation, Recorded Value
data = [
    ("Brc1cccc2nc(C#Cc3ccccn3)ccc12", 77.5),
]

Report inhibition for every entry below.
1. CC(C)(C)C(=O)Oc1cccc2nc(C#Cc3ccccn3)ccc12
2. Brc1cccc2nc(C#Cc3ccccc3)ccc12

[62.4, 20.7]

Hi there! I need inhibition for each item below, if you can.
1. N#Cc1cccc(C#Cc2ccc3ccccc3n2)n1
2. C(#Cc1ncccn1)c1ccc2ccccc2n1
3. Cc1cccnc1C#Cc1ccc2ccccc2n1
4. C(#Cc1ccc2ccccc2n1)c1ccccc1

[64.8, 28.6, 40.1, 67.7]

---

Tested Target: Metabotropic glutamate receptor 5 (Homo sapiens, UniProt P41594)
Measurement Notes: Antagonist activity at human mGluR5 expressed in HEK293 cells assessed as inhibition of L-glutamate-induced calcium mobilization at 1 uM by FDSS6000 assay
Type: functional, cell-based
Give measured inhibition for each item. Keep answers brief.
Give bare numbers, in %.

Give me inhibition for each of these molecules, listed below.
1. Fc1cccc(C#Cc2ccc3ccccc3n2)n1
2. CC(C)(C)C(=O)Oc1cccc2nc(C#Cc3ccccc3)ccc12
3. CC(C)(C)C(=O)Oc1cccc2nc(C#Cc3cccnc3)ccc12
4. FC(F)(F)c1cccc(C#Cc2ccc3ccccc3n2)n1
5. CC(C)(C)C(=O)Oc1cccc2nc(C#Cc3ccccn3)ccc12

1. 29.6
2. 24
3. 10.6
4. 15.8
5. 17.1
